Every entry's value here was drawn from the supplement of paper PMC13380429.

System: Vero E6 infected with SARS-CoV-2
Assay: inhibition of SARS-CoV-2 cytopathic effect; higher = more antiviral protection, active = above 15
Conditions: 8.33 nM; 48 h
Readout Label: inhibition of SARS-CoV-2 cytopathic effect (%)
Numbers only, in %.

The cases that follow already have their inhibition of SARS-CoV-2 cytopathic effect on record.
{"columns": ["Compound", "Measure Unit", "Assay Result"],
 "data": [
  ["CN1CCC(=C2c3ccccc3CCn3c(C=O)cnc32)CC1", "%", 0.26],
  ["CSc1cc2c(cc1C(F)(F)F)N(C(=O)Nc1cccnc1)CC2", "%", -3.61],
  ["Clc1cccc(Cl)c1CSc1nnc(-c2cnccn2)s1", "%", 3.59],
  ["CN(C)CCn1cc(S(=O)(=O)c2cccc(F)c2)c2cccnc21", "%", 5.65],
  ["CCCCCCCCCCCCCCOC(=O)c1cccnc1 [myristyl-nicotinate]", "%", 2.86]
]}

Next item in the queue.
What does the record list as inhibition of SARS-CoV-2 cytopathic effect for O=c1cc(-c2ccccc2)oc2cc(O)cc(O)c12 ? 0.24

====

System: Vero E6 infected with SARS-CoV-2
Test: inhibition of SARS-CoV-2 cytopathic effect; higher = more antiviral protection, active = above 15
Conditions: 8.33 nM; 48 h
Where a name gives a salt, the structure may show the parent alone.
Readout Label: inhibition of SARS-CoV-2 cytopathic effect

{"columns": ["Compound", "Assay Result"],
 "data": [
  ["Cc1cc(CN)cc(C)c1NC(=O)c1ccc(-c2cc(Cl)ccc2Cl)o1", "1.98% (inactive)"],
  ["Cc1cc(C(=CNc2ccc(Cl)cc2)C(=O)Nc2ccc(Cl)cc2)on1", "-1.99% (inactive)"],
  ["O=C(NC(=O)c1c(F)cccc1F)Nc1cc(Cl)c(OC(F)(F)C(F)C(F)(F)F)cc1Cl (stereo not drawn)", "2.18% (inactive)"],
  ["Cc1cc(C)c(Nc2ccnc(Nc3ccc(C#N)cc3)n2)c(C)c1", "-0.53% (inactive)"]
]}

Can you give me inhibition of SARS-CoV-2 cytopathic effect for all of these, one by one?
1. COc1cc(-n2cnc3cc(-c4ccc(Cl)cc4)sc3c2=O)ccc1OCCN1CCCC1
2. CN1CCC(NC(=O)c2cc(-c3c(O)cc(O)cc3Oc3ccc([N+](=O)[O-])cc3)on2)CC1
3. CCCN(CCC)C(=O)C1=Cc2ccc(-c3ccc(C(=O)N4CCCC4)cc3)cc2N=C(N)C1
4. COC(=O)Nc1nc2cc([S+]([O-])c3ccccc3)ccc2[nH]1 (stereo not drawn)
5. O/N=C/c1ccc(-c2ccc(O)c(F)c2)c(Cl)c1O

1: 0.96% (inactive); 2: 0.21% (inactive); 3: 0.05% (inactive); 4: 1.23% (inactive); 5: -2.33% (inactive)

Would you mind listing inhibition of SARS-CoV-2 cytopathic effect for each of the following compounds?
1. COc1ccc2c(c1OC)C(=O)O[C@@H]2[C@H]1c2c(cc3c(c2OC)OCO3)CCN1C
2. OC[C@H]1O[C@@H](n2cnc3c(N[C@H]4CCC[C@@H]4O)ncnc32)[C@H](O)[C@@H]1O
3. N#CN1CCCC1
4. Cc1n[nH]c(C)c1Cc1sc2c(c1C(=O)N1C[C@H](O)CO1)c(=O)n(C)c(=O)n2CC(C)C
5. Oc1c(Br)cc(Br)c2cccnc12
6. COc1cccc2c1C(=O)c1c(O)c3c(c(O)c1C2=O)C[C@@](O)(C(=O)CO)C[C@@H]3O[C@H]1C[C@H](N)[C@@H](O)[C@H](C)O1 [Epirubicin Hydrochloride]

["0.3% (inactive)", "4.09% (inactive)", "2.93% (inactive)", "3.88% (inactive)", "2.01% (inactive)", "1.09% (inactive)"]

Return reported inhibition of SARS-CoV-2 cytopathic effect values for all items listed beneath this line.
1. Cc1cc(C#N)cc(C)c1Oc1nc(Nc2ccc(C#N)cc2)nc(N)c1Br
2. COc1cc(OC)c(/C=C/S(=O)(=O)Cc2ccc(OC)c(OP(=O)(O)O)c2)c(OC)c1

1. -0.81% (inactive)
2. 1.56% (inactive)

Name the recorded inhibition of SARS-CoV-2 cytopathic effect for COc1cc2ncnc(Nc3ccc(F)c(Cl)c3)c2cc1NC(=O)/C=C/CN1CCCCC1 . -7.71% (inactive)
